- Protocol Notes: Binding affinity to influenza neuraminidase incubated for 2 hrs by ELISA
- Set-up: species or system Influenza A virus
Consider the following compounds; for each one, report its Kd.
One number for each entry, in nM.

>  <Smi>
C[C@H](NC(=O)[C@@H]1CCCN1C(=O)[C@H](CCCCN)NC(=O)[C@H](CCCNC(=N)N)NC(=O)[C@@H](Cc1c[nH]c2ccccc12)NC(=O)CN)C(=O)N[C@@H](CCC(N)=O)C(=O)N1CCC[C@H]1C(=O)O

>  <Property Measured>
Kd

>  <Measured Result>
27.7

$$$$
>  <Smi>
C[C@H](NC(=O)[C@@H](NC(=O)[C@H](CCCCN)NC(=O)[C@H](Cc1c[nH]cn1)NC(=O)[C@H](Cc1ccccc1)NC(=O)[C@H](CCC(=O)O)NC(=O)[C@H](N)CCCCN)[C@@H](C)O)C(=O)N[C@@H](CCC(N)=O)C(=O)N1CCC[C@H]1C(=O)O

>  <Property Measured>
Kd

>  <Measured Result>
28.6

$$$$
>  <Smi>
C[C@H](NC(=O)[C@H](CCC(N)=O)NC(=O)[C@H](C)NC(=O)[C@H](Cc1c[nH]cn1)NC(=O)[C@H](CCCCN)NC(=O)[C@H](CCCNC(=N)N)NC(=O)[C@@H](CC(=O)O)NC(=O)[C@H](N)CCC(=O)O)C(=O)O

>  <Property Measured>
Kd

>  <Measured Result>
36.6

$$$$
>  <Smi>
C[C@H](NC(=O)[C@@H](NC(=O)[C@H](CCCCN)NC(=O)[C@@H](Cc1c[nH]cn1)NC(=O)[C@@H](CC(=O)O)NC(=O)[C@@H](N)CC(=O)O)[C@@H](C)O)C(=O)N[C@@H](Cc1c[nH]cn1)C(=O)N[C@@H](CCC(N)=O)C(=O)O

>  <Property Measured>
Kd

>  <Measured Result>
38.6

$$$$
>  <Smi>
C[C@H](NC(=O)[C@@H]1CCCN1C(=O)[C@H](CCCCN)NC(=O)[C@@H](CCCNC(=N)N)NC(=O)[C@@H](CCCNC(=N)N)NC(=O)[C@H](N)CCC(=O)O)C(=O)N[C@@H](CCC(N)=O)C(=O)N1CCC[C@H]1C(=O)O

>  <Property Measured>
Kd

>  <Measured Result>
11

$$$$

Below are some compounds; for each one, tell me its Kd.
1. CSCC[C@H](NC(=O)[C@@H](NC(=O)[C@@H](CCCNC(=N)N)NC(=O)[C@@H](Cc1ccccc1)NC(=O)[C@H](N)CCC(=O)O)[C@@H](C)O)C(=O)N[C@H](C(=O)N[C@@H](Cc1c[nH]cn1)C(=O)N1CCC[C@H]1C(=O)N[C@@H](CCCCN)C(=O)O)C(C)C
2. CC(C)C[C@H](NC(=O)[C@@H](CCCNC(=N)N)NC(=O)[C@H](CCCCN)NC(=O)[C@H](N)Cc1c[nH]c2ccccc12)C(=O)N[C@@H](Cc1c[nH]cn1)C(=O)N[C@@H](Cc1c[nH]cn1)C(=O)N[C@@H](CCCCN)C(=O)N1CCC[C@H]1C(=O)N[C@@H](C)C(=O)O

20.3
19

====

Consider the following compounds; for each one, report its IC50.
- Tested on: Influenza A virus
- Protocol Notes: Antiviral activity against Influenza A virus H5N1 infected in dog MDCK cells assessed as inhibition of virus-induced cytopathic effect treated 1 hr post infection and measured after 48 hrs by CCK-8 assay
- Type: functional, organism-based
Answers are plain numbers, in µM.

>  <Smi>
CC(C)C[C@H](NC(=O)[C@@H]1CCCN1C(=O)[C@H](CCCNC(=N)N)NC(=O)[C@@H](CCCNC(=N)N)NC(=O)[C@@H](CCCNC(=N)N)NC(=O)[C@H](N)Cc1ccccc1)C(=O)N[C@@H](CCCNC(=N)N)C(=O)N[C@@H](C)C(=O)O

>  <IC50 [µM]>
50.2

$$$$

I have this compound here, `C[C@H](NC(=O)[C@@H]1CCCN1C(=O)[C@H](CCCCN)NC(=O)[C@H](CCC(=O)O)NC(=O)[C@@H](CCC(=O)O)NC(=O)[C@H](N)CCC(=O)O)C(=O)N[C@@H](CCC(N)=O)C(=O)N1CCC[C@H]1C(=O)O` , and I need its recorded IC50. 64.3

====

- Tested on: Influenza A virus
- Protocol Notes: Antiviral activity against Influenza A virus H5N1 infected in dog MDCK cells assessed as inhibition of virus-induced cytopathic effect treated 1 hr post infection and measured after 48 hrs by CCK-8 assay
- Assay type: functional, organism-based
pIC50: −log10 of the molar value.
Give fulfilled when the value for pIC50 is at least 5. Give not fulfilled when it is less.

Worked set:
>  <Compound>
C[C@H](NC(=O)[C@@H]1CCCN1C(=O)[C@H](CCCCN)NC(=O)[C@H](CCCNC(=N)N)NC(=O)[C@@H](Cc1c[nH]c2ccccc12)NC(=O)CN)C(=O)N[C@@H](CCC(N)=O)C(=O)N1CCC[C@H]1C(=O)O

>  <Classification>
not fulfilled

$$$$
>  <Compound>
C[C@H](NC(=O)[C@H](CCC(N)=O)NC(=O)[C@H](C)NC(=O)[C@H](Cc1c[nH]cn1)NC(=O)[C@H](CCCCN)NC(=O)[C@H](CCCNC(=N)N)NC(=O)[C@@H](CC(=O)O)NC(=O)[C@H](N)CCC(=O)O)C(=O)O

>  <Classification>
fulfilled

$$$$
>  <Compound>
CSCC[C@H](NC(=O)[C@@H](NC(=O)[C@@H](CCCNC(=N)N)NC(=O)[C@@H](Cc1ccccc1)NC(=O)[C@H](N)CCC(=O)O)[C@@H](C)O)C(=O)N[C@H](C(=O)N[C@@H](Cc1c[nH]cn1)C(=O)N1CCC[C@H]1C(=O)N[C@@H](CCCCN)C(=O)O)C(C)C

>  <Classification>
not fulfilled

$$$$
>  <Compound>
CCC(CC)O[C@@H]1C=C(C(=O)O)C[C@H](N)[C@H]1NC(C)=O [OSELTAMIVIR CARBOXYLATE]

>  <Classification>
fulfilled

$$$$

Proceed to the following item.
Exam item: decide whether the reported pIC50 for `C[C@H](NC(=O)[C@@H]1CCCN1C(=O)[C@H](CCCCN)NC(=O)[C@@H](CCCNC(=N)N)NC(=O)[C@@H](CCCNC(=N)N)NC(=O)[C@H](N)CCC(=O)O)C(=O)N[C@@H](CCC(N)=O)C(=O)N1CCC[C@H]1C(=O)O` is at least 5. fulfilled

====

- Test system: Influenza A virus
- Protocol Notes: Antiviral activity against Influenza A virus H5N1 infected in dog MDCK cells assessed as inhibition of virus-induced cytopathic effect treated 1 hr post infection and measured after 48 hrs by CCK-8 assay
- Type: functional, organism-based
Property Measured: IC50 (µM)
Numbers only, in µM.

>  <Smi>
C[C@H](NC(=O)[C@@H](NC(=O)[C@H](CCCCN)NC(=O)[C@H](Cc1c[nH]cn1)NC(=O)[C@H](Cc1ccccc1)NC(=O)[C@H](CCC(=O)O)NC(=O)[C@H](N)CCCCN)[C@@H](C)O)C(=O)N[C@@H](CCC(N)=O)C(=O)N1CCC[C@H]1C(=O)O

>  <Unit Descriptor>
µM

>  <IC50>
25.4

$$$$
>  <Smi>
C[C@H](NC(=O)[C@@H](NC(=O)[C@H](CCCCN)NC(=O)[C@@H](Cc1c[nH]cn1)NC(=O)[C@@H](CC(=O)O)NC(=O)[C@@H](N)CC(=O)O)[C@@H](C)O)C(=O)N[C@@H](Cc1c[nH]cn1)C(=O)N[C@@H](CCC(N)=O)C(=O)O

>  <Unit Descriptor>
µM

>  <IC50>
48.2

$$$$

Below are some molecules; for each one, tell me its IC50.
1. CC(C)C[C@H](NC(=O)[C@@H](CCCNC(=N)N)NC(=O)[C@H](CCCCN)NC(=O)[C@H](N)Cc1c[nH]c2ccccc12)C(=O)N[C@@H](Cc1c[nH]cn1)C(=O)N[C@@H](Cc1c[nH]cn1)C(=O)N[C@@H](CCCCN)C(=O)N1CCC[C@H]1C(=O)N[C@@H](C)C(=O)O
2. C[C@H](NC(=O)[C@@H]1CCCN1C(=O)[C@H](CCCCN)NC(=O)[C@@H](CCCNC(=N)N)NC(=O)[C@H](Cc1c[nH]cn1)NC(=O)CN)C(=O)N[C@@H](CCC(N)=O)C(=O)N1CCC[C@H]1C(=O)O

[17.9, 31.3]
